experiment: qHTS assay to identify small molecule agonists of the androgen receptor (AR) signaling pathway in the presence of an antagonist - cell viability counter screen (AID 1259379); conditions: MDA-kb2 viability, CellTiter-Fluor, 16 h; series mostly up to 92.4 µM;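 also: MDA-kb2 human breast cancer cells carrying an MMTV luciferase reporter; nearly all actives have a fitted effect of over 25% in size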
Results filed as inconclusive are left out. Active and inactive are the calls of the source. Calls follow the shape of the dose curve; as a rule, active = well fitted cell-killing curve with a large enough effect in the repeat runs; inconclusive = weak or mixed curves, or effect the other way; inactive = flat fitted curve, though single readings scatter.
In this exercise, the only acceptable responses are YES for active, NO for inactive

What is the recorded call for this molecule in the test? "NCCN"
NO

What is the recorded call for this molecule in the test? "O=C(O)c1cc(=O)[nH]c(=O)[nH]1"
NO

Next:
What is the recorded call for this molecule in the test? "COc1ccc(C(=O)c2ccccc2O)c(O)c1"
NO

What is the recorded call for this molecule in the test? CCOC(=O)C(C)Oc1ccc(Oc2cnc3cc(Cl)ccc3n2)cc1 (stereo unspecified)
NO

What is the recorded call for this molecule in the test? CCC(Cc1c(I)cc(I)c(N)c1I)C(=O)O (stereo unspecified)
NO

What is the recorded call for this molecule in the test? "NCCOCCO"
NO

What is the recorded call for this molecule in the test? "CC1(C)NC(=O)N(c2ccc([N+](=O)[O-])c(C(F)(F)F)c2)C1=O"
NO

What is the recorded call for this molecule in the test? O=C(O)COCCN1CCN(C(c2ccccc2)c2ccc(Cl)cc2)CC1 (stereo unspecified)
NO

What is the recorded call for this molecule in the test? "CN(C)C"
NO

What is the recorded call for this molecule in the test? "c1ccc2cc3ccccc3cc2c1"
NO

What is the recorded call for this molecule in the test? "C[C@]12CC[C@@H]3c4ccc(O)cc4CC[C@H]3[C@@H]1CC[C@@H]2O"
NO

What is the recorded call for this molecule in the test? "Cc1cccc(Nc2ccccc2C(=O)O)c1C"
NO

What is the recorded call for this molecule in the test? "Cc1ccc(S(=O)(=O)NCl)cc1"
NO
